- Test system: S. cerevisiae
- test.description: in vitro
- condition.description: Saccharomyces cerevisiae
Below, each of the compounds is paired with its reported concentrations at which not toxic, S. cerevisiae cytotoxicity testing value.
readout.label: concentrations at which not toxic, S. cerevisiae cytotoxicity testing

{"columns": ["compound", "test.target", "result"],
 "data": [
  ["CONC(=O)C(C)c1ccc(Oc2nc3ccc(OC)cc3s2)cc1 (stereo not shown) [NZ-335]", "S. cerevisiae", "≥ 100 µM"],
  ["CNC(=O)C(C)c1ccc(Oc2nc3cc(Cl)c(Cl)cc3s2)cc1 (stereo not shown) [NZ-394]", "S. cerevisiae", "≥ 100 µM"],
  ["CC(C)NC(=O)Nc1ccc(Oc2nc3ccc(Cl)cc3s2)c[n+]1[O-] [NZ-391]", "S. cerevisiae", "≥ 100 µM"],
  ["Nc1ccc(Oc2nc3ccc(F)cc3s2)cc1 [NZ-413]", "S. cerevisiae", "≥ 100 µM"],
  ["CC(C)NC(=O)Cc1ccc(Oc2nc3ccc(F)cc3s2)cc1O [NZ405]", "S. cerevisiae", "≥ 100 µM"],
  ["CC(C(=O)NCC(O)CO)c1ccc(Oc2nc3ccc(Cl)cc3s2)cc1 (stereo not shown) [NZ-372]", "S. cerevisiae", "≥ 100 µM"],
  ["O=C(Cc1ccc(Oc2nc3ccc(F)cc3s2)cc1)N1CCCCC1 [NZ-471]", "S. cerevisiae", "≥ 100 µM"],
  ["O=C(O)Cc1ccc(Oc2nc3cc(F)c(F)cc3s2)cc1F [NZ-440]", "S. cerevisiae", "≥ 100 µM"],
  ["NC(=O)Cc1ccc(Oc2nc3cc(F)c(F)cc3s2)cc1 [NZ-485]", "S. cerevisiae", "≥ 100 µM"],
  ["NCCNC(=O)Cc1ccc(Oc2nc3ccc(F)cc3s2)cc1 [NZ-427]", "S. cerevisiae", "≥ 100 µM"],
  ["COC(=O)C(OC)c1ccc(Oc2nc3ccc(Cl)cc3s2)cc1 (stereo not shown) [NZ-355]", "S. cerevisiae", "≥ 100 µM"],
  ["CCNC(=O)COc1ccc(Oc2cnc3cc(Cl)ccc3n2)cc1 [NZ-306]", "S. cerevisiae", "≥ 100 µM"],
  ["CNC(=O)Cc1ccc(Oc2cnc3cc(Cl)ccc3n2)cc1O [NZ-402]", "S. cerevisiae", "≥ 100 µM"],
  ["CN1CCN(C(=O)Cc2ccc(Oc3nc4ccc(F)cc4s3)cc2F)CC1 [NZ-467]", "S. cerevisiae", "≥ 100 µM"],
  ["CC(C)NC(=O)Cc1ccc(Oc2nc3cc(F)c(F)cc3s2)cc1 [NZ-403]", "S. cerevisiae", "≥ 100 µM"],
  ["CC(C)NC(=O)Nc1ccc(Oc2nc3cc(Cl)c(Cl)cc3s2)cc1 [NZ-393]", "S. cerevisiae", "≥ 100 µM"],
  ["CC(C(=O)NCCO)c1ccc(Oc2nc3ccc(Cl)cc3s2)cc1 (stereo not shown) [NZ-370]", "S. cerevisiae", "≥ 100 µM"],
  ["NC(=O)Cc1ccc(Oc2nc3ccc(Cl)cc3s2)cc1F [NZ-500]", "S. cerevisiae", "≥ 100 µM"],
  ["CC(C)(C)OC(=O)Nc1ccc(Oc2cnc3cc(Cl)ccc3n2)cc1 [NZ-321]", "S. cerevisiae", "≥ 100 µM"],
  ["CNC(=O)Cc1ccc(Oc2nc3cc(F)c(F)cc3s2)cc1F [NZ-411]", "S. cerevisiae", "≥ 100 µM"],
  ["O=C(O)Cn1ccc(Oc2nc3ccc(F)cc3s2)cc1=O [NZ-418]", "S. cerevisiae", "≥ 100 µM"],
  ["CONC(=O)COc1ccc(Oc2nc3ccc(F)cc3s2)cc1 [NZ-305]", "S. cerevisiae", "≥ 100 µM"],
  ["CC(C)(Oc1ccc(Oc2nc3ccc(Cl)cc3s2)cc1)C(=O)O [NZ-318]", "S. cerevisiae", "≥ 100 µM"],
  ["COC(=O)C(C)(C)Oc1ccc(Oc2cnc3cc(Cl)ccc3n2)cc1 [NZ-314]", "S. cerevisiae", "≥ 100 µM"],
  ["CC(C)(C)OC(=O)Nc1ccc(Oc2nc3ccc(F)cc3s2)cc1 [NZ-412]", "S. cerevisiae", "≥ 100 µM"],
  ["CNC(=O)Nc1ccc(Oc2nc3ccc(Cl)cc3s2)cc1 [NZ-353]", "S. cerevisiae", "≥ 100 µM"],
  ["CNC(=O)C(C)c1ccc(Oc2nc3ccc(F)cc3s2)cc1O (stereo not shown) [NZ-408]", "S. cerevisiae", "≥ 100 µM"],
  ["CNC(=O)Cc1ccc(Oc2nc3ccc(F)cc3s2)cc1O [NZ-395]", "S. cerevisiae", "≥ 100 µM"]
]}
